Assay: Cell Viability - H-4-II-E (AID 543);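 further: cells exposed to compound for 40 hours; nearly all actives have a fitted effect of over 35% in size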
Conditions: H-4-II-E rat hepatoma viability; series mostly up to 92.2 µM
Results filed as inconclusive are left out. Active and inactive are the calls of the source. The call rests on the fitted dose curve; in most records, active means well fitted cell-killing curve with a large enough effect; inconclusive means small, poorly fitted or top-dose-only effect; inactive means flat fitted curve, though single readings scatter.
Assign a class; possible classes are active, inactive

[ask] Which result was noted for this compound in the test: `C=CCOC(=O)c1ccccc1C(=O)OCC=C`
[reply] inactive

---

Assay: NCATS anti-infectives library activity on the primary C. elegans qHTS viability assay (AID 1745855)
Conditions: C. elegans worm area imaging, day 7; series mostly up to 41.8 µM
Inconclusive results are not listed. Calls of active or inactive are those of the source. Calls follow the shape of the full dose curve.
Assign a class; possible classes are yes (1) = active, no (0) = inactive

{"SMILES REPRESENTATION": "CCCCN(Cc1ccc(C(=O)NO)cc1)C(=O)Nc1ccccc1", "LABEL VALUE": "no (0)"}
{"SMILES REPRESENTATION": "Cc1cccc(C)c1N(CC(=O)Nc1ccc(-c2ncon2)cc1)C(=O)C1CCS(=O)(=O)CC1", "LABEL VALUE": "no (0)"}
{"SMILES REPRESENTATION": "C[C@@]1(F)[C@H](O)[C@@H](CO)O[C@H]1n1ccc(=O)[nH]c1=O", "LABEL VALUE": "no (0)"}
{"SMILES REPRESENTATION": "O=C(O)[C@H]1C2CCC(CC2)[C@@H]1Nc1nc(-c2c[nH]c3ncc(F)cc23)ncc1F", "LABEL VALUE": "no (0)"}
{"SMILES REPRESENTATION": "O=C(O[C@@H]1Cc2c(O)cc(O)cc2O[C@@H]1c1cc(O)c(O)c(O)c1)c1cc(O)c(O)c(O)c1", "LABEL VALUE": "yes (1)"}

[ask] Which result was noted for this compound in the test: `O=c1ccn2c(n1)O[C@H]1[C@H](O)[C@@H](CO)O[C@H]12`
[reply] no (0)

[ask] Which result was noted for this compound in the test: `CC(C)CN(C[C@@H](O)[C@H](Cc1ccccc1)NC(=O)[C@@H](NC(=O)CNCc1cccc(F)c1)C(C)(C)C)S(=O)(=O)c1cccc(N)c1`
[reply] no (0)
